- protocol-summary: Photostability of the compound in 17% bovine calf serum assessed as rate of photobleaching at 6.5 uM after 20 to 22 mins in presence of light (75 mW/cm'2)
- Type: ADME
- study-conditions: cattle, read-out: Drug degradation
Task for the reader: assign each of the following compounds its reported degraded at 6.5 µM.
Answers are plain numbers, in %.

Illustrative cases are given below, each with its answer.
Ask | // query degraded at 6.5 µM value for entry CCc1c(C)c2cc3nc(c4c5[nH]c(cc6nc(cc1[nH]2)C(C)=C6C(C)OCc1cccc(I)c1)c(C)c5C(=O)C4)[C@@H](CCC(=O)O)[C@@H]3C (stereo partly drawn)
Reply | 50

Ask | // query degraded at 6.5 µM value for entry CC[C@H]1c2cc3[nH]c4c(c5nc(cc6[nH]c(cc(n2)[C@@H]1C)c(C(C)OCc1cccc(I)c1)c6C)C(C)=C5CCC(=O)O)CC(=O)c4c3C (stereo partly drawn)
Reply | 50

Next compound, degraded at 6.5 µM to be filled in.
Ask | // query degraded at 6.5 µM value for entry CCC1=C(C)c2cc3[nH]c(cc4nc(c5c6[nH]c(cc1n2)c(C)c6C(=O)C5)C(CCC(=O)O)[C@@H]4C)c(C)c3C(C)OCc1cccc(I)c1 (stereo partly drawn)
Reply | 50
